The following binders are shown together with reported Blocking % values.
target: T1, recombinant SARS-CoV-2 Spike RBD domain, Delta variant (SARS-CoV-2); experiment: competition ELISA, blocking of RBD binding to ACE2 ectodomain
T1 construct: also called RBD Delta variant
// return numeric value only (unit: %, not printed)

Solved cases below.
SPK002M C2 antibody (antibody, human IgG1, kappa, V domains shown) VH: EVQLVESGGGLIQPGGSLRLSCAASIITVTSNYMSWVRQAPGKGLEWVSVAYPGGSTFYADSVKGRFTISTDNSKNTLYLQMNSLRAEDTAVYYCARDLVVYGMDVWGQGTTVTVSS VL: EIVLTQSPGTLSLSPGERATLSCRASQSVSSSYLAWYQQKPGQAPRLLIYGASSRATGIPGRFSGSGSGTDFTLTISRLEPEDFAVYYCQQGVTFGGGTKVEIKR :: 90
SPK002M B2 antibody (antibody, human IgG1, kappa, V domains shown) VH: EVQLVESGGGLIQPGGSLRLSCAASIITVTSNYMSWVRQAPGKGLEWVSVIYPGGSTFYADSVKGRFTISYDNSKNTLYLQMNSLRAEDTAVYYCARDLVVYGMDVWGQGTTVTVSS VL: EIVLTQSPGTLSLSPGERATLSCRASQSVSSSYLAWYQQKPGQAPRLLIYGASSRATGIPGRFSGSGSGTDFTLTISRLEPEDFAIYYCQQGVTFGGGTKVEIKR :: 88

**Q:** # lookup: Blocking % of SPK002M A3 antibody (antibody, human IgG1, kappa, V domains shown) VH: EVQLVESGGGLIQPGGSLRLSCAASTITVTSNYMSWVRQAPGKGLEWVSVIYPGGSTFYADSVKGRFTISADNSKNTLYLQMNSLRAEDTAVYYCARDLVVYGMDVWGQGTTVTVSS VL: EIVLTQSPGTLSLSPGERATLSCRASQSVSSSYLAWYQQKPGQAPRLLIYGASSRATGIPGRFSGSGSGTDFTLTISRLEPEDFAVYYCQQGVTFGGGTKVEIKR
**A:** 95

**Q:** Record: SPK002M C3 antibody (antibody, human IgG1, kappa, V domains shown) VH: EVQLVESGGGLIQPGGSLRLSCAASIITVTSNYMSWVRQAPGKGLEWVSVIYPGGSTFYADSVKGRFTISTDNSKNTLYLQMNSLRAEDTAVYYCARDLVVYGMDVWGQGTTVTVSS VL: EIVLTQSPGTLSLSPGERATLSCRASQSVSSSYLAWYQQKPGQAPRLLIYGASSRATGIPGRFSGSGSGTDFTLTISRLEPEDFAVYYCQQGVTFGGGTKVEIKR
**A:** 95
